Reference for the values: ChEMBL document CHEMBL1177785

# Experimental system: Potassium channel subfamily K member 10 (Rattus norvegicus, UniProt Q9JIS4)
# Sequence (Q9JIS4 whole entry): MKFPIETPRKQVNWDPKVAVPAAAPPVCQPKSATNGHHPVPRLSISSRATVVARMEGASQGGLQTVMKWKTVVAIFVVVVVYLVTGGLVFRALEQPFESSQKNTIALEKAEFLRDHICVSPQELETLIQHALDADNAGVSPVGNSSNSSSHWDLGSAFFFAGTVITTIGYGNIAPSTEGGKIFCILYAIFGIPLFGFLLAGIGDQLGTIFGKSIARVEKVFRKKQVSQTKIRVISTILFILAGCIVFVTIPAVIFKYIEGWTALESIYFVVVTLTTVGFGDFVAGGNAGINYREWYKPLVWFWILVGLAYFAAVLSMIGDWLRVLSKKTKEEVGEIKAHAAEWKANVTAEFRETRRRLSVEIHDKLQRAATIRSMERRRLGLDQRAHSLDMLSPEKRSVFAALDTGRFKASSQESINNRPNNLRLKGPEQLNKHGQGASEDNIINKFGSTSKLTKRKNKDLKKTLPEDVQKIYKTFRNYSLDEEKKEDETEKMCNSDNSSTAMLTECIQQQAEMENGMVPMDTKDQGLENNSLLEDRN
# Experiment: Inhibition of rat TREK2 channel -mediated current expressed in HEK293 at 60 mV holding potential by patch clamp method
pIC50: −log10 of the molar value.
Endpoint label: pIC50

Structure smiles | Experimental system | Relation sign | Meas value
COc1ccc(/C=C/C(=O)c2ccc(NS(=O)(=O)c3ccc(C)cc3)cc2)cc1 | Potassium channel subfamily K member 10 (Rattus norvegicus, UniProt Q9JIS4) | = | 4.00
Cc1ccc(S(=O)(=O)Nc2ccc(C(=O)/C=C/c3ccc(O)cc3)cc2)cc1 | Potassium channel subfamily K member 10 (Rattus norvegicus, UniProt Q9JIS4) | = | 4.21
Cc1ccc(S(=O)(=O)Nc2ccc(C(=O)/C=C/c3ccccc3)cc2)cc1 | Potassium channel subfamily K member 10 (Rattus norvegicus, UniProt Q9JIS4) | < | 4.00
